# credit: ChEMBL document CHEMBL1140211

Examples of molecules with documented Activity follow.
Test system: Phytophthora infestans
method.description: Inhibition of Phytophthora infestans cytochrome bc1 complex inoculated in tomato plant assessed as lowest drug concentration required to control 100% disease applied to leaf 1 hr prior inoculation measured after 6 to 9 days
measured.parameter: Activity

{"columns": ["smiles", "result"],
 "data": [
  ["COC(=O)CNC(=O)CCC/C=C\\NC(=O)/C=C(C)/C=C/[C@H](C)[C@H](OC)[C@H](C)[C@H](/C=C/c1ccccc1)OC", "45 µM"],
  ["COC(=O)CNC(=O)/C=C\\C/C=C\\NC(=O)/C=C(C)/C=C/[C@H](C)[C@H](OC)[C@H](C)[C@H](/C=C/c1ccccc1)OC", "> 180 µM"],
  ["C/C=C(C)/C=C/C=C/[C@H](OC)[C@@H](C)[C@@H](OC)[C@@H](C)CCc1oc2c(O)c(OC)cc(OC)c2c(=O)c1C", "> 180 µM"],
  ["CO/C=C(/C(=O)OC)c1ccccc1Oc1cc(Oc2ccccc2C#N)ncn1", "< 1.8 µM"]
]}

----------
// Activity lookup, one value per entry
System: Puccinia triticina
method.description: Inhibition of Puccinia triticina cytochrome bc1 complex inoculated in wheat plant assessed as lowest drug concentration required to control 100% disease applied to leaf 1 hr prior inoculation measured after 6 to 9 days
measured.parameter: Activity

{"columns": ["smiles", "tested.target", "result"],
 "data": [
  ["COC(=O)CNC(=O)/C=C\\C/C=C\\NC(=O)/C=C(C)/C=C/[C@H](C)[C@H](OC)[C@H](C)[C@H](/C=C/c1ccccc1)OC", "Puccinia triticina", "45 µM"],
  ["CO/C=C(/C(=O)OC)c1ccccc1Oc1cc(Oc2ccccc2C#N)ncn1", "Puccinia triticina", "< 1.8 µM"],
  ["C/C=C(C)/C=C/C=C/[C@H](OC)[C@@H](C)[C@@H](OC)[C@@H](C)CCc1oc2c(O)c(OC)cc(OC)c2c(=O)c1C", "Puccinia triticina", "> 180 µM"],
  ["COC(=O)CNC(=O)CCC/C=C\\NC(=O)/C=C(C)/C=C/[C@H](C)[C@H](OC)[C@H](C)[C@H](/C=C/c1ccccc1)OC", "Puccinia triticina", "9 µM"]
]}

----------
Tested on: Plasmopara viticola
method.description: Inhibition of Plasmopara viticola cytochrome bc1 complex inoculated in vine plant assessed as lowest drug concentration required to control 100% disease applied to leaf 1 hr prior inoculation measured after 6 to 9 days
measured.parameter: Activity (µM)

{"columns": ["compound", "unit.spec", "lt.gt.eq", "quantitative.result"],
 "data": [
  ["COC(=O)CNC(=O)CCC/C=C\\NC(=O)c1ccc(Cc2ccc(Br)cc2)cc1", "µM", "=", 10],
  ["COC(=O)CNC(=O)CCC/C=C\\NC(=O)/C=C(C)/C=C/[C@H](C)[C@H](OC)[C@H](C)[C@H](/C=C/c1ccccc1)OC [CROCACIN D]", "µM", "=", 25],
  ["COC(=O)CNC(=O)/C=C\\C/C=C\\NC(=O)/C=C(C)/C=C/[C@H](C)[C@H](OC)[C@H](C)[C@H](/C=C/c1ccccc1)OC [CROCACIN A]", "µM", "=", 45],
  ["CO/C=C(/C(=O)OC)c1ccccc1Oc1cc(Oc2ccccc2C#N)ncn1 [AZOXYSTROBIN]", "µM", "<", 1.8],
  ["C/C=C(C)/C=C/C=C/[C@H](OC)[C@@H](C)[C@@H](OC)[C@@H](C)CCc1oc2c(O)c(OC)cc(OC)c2c(=O)c1C [STIGMATELLIN]", "µM", "=", 180],
  ["CCCCCCOc1ccc(C(=O)N/C=C\\CCCC(=O)NCC(=O)OC)cc1", "µM", ">", 100],
  ["CCOc1ccc(Cc2ccc(C(=O)N/C=C\\CCCC(=O)NCC(=O)OC)cc2)cc1", "µM", "=", 25],
  ["CCCCCCCCCCCCC(=O)N/C=C\\CCCC(=O)NCC(=O)OC", "µM", ">", 100]
]}

----------
Here the recorded pIC50 is given for each entry.
method.description: Inhibition of cytochrome bc1 complex in bovine heart mitochondria by NADH oxidase assay
Parameters: species or system Bos taurus
pIC50: −log10 of the molar value.
measured.parameter: pIC50

{"columns": ["smiles", "quantitative.result"],
 "data": [
  ["COC(=O)CNC(=O)CCC/C=C\\NC(=O)/C=C(C)/C=C/[C@H](C)[C@H](OC)[C@H](C)[C@H](/C=C/c1ccccc1)OC", 7.44],
  ["CCc1ccc(Oc2ccc(C(=O)N[C@H]3C[C@H]3CCC(=O)NCC(=O)OC)cc2)cc1", 6.05],
  ["CCCCCCCCCCCCC(=O)N/C=C\\CCCC(=O)NCC(=O)OC", 7.62],
  ["COC(=O)CNC(=O)/C=C\\C/C=C\\NC(=O)/C=C(C)/C=C/[C@H](C)[C@H](OC)[C@H](C)[C@H](/C=C/c1ccccc1)OC", 7.25],
  ["CCc1ccc(Cc2ccc(C(=O)N/C=C\\CCCC(=O)NCC(=O)OC)cc2)cc1", 7.80],
  ["COC(=O)COc1ccc2oc(=O)n(Cc3ccc(Cc4ccc(I)cc4)cc3)c2c1", 7.12],
  ["COC(=O)CNC(=O)CCC/C=C\\NC(=O)c1ccc(Cc2ccc(Br)cc2)cc1", 7.77],
  ["CCc1ccc(Cc2ccc(Cn3c(=O)oc4ccc(OCC(=O)OC)cc43)cc2)cc1", 7.35]
]}
